Test: small-molecule binders of probe aLefty1, primary screen, biochemical, small-molecule microarray, 635/667 nm fluorescence (AID 1153);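 further: score merges spot fluorescence with signal-to-noise ratio from the scanned slide images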
Conditions: higher = more signal
Quantity: composite z-score
Respond numerically, and do not add a unit to the figure.

Here's what some known entries look like.
COc1ccc(CCN2C(=O)[C@@]3(c4ccc([N+](=O)[O-])cc4)CC(=O)N(CC45CC6CC(CC(C6)C4)C5)[C@@H]3c3ccc(CO)cc32)cc1
0.585
CCOC(=O)C[C@H]1[C@H](OC(=O)Cc2ccc3c(c2)OCO3)[C@@H](NC(=O)CC(C)C)c2cc(OCCCO)ccc2N1C(=O)c1ccccc1
0.0698

Noted for C=CCN1C(=O)[C@@]2(O[C@@H](CCn3cc([C@H](O)c4ccccc4)nn3)[C@H]([Si](C)(C)c3ccc(OC)cc3)[C@H]2C)c2cc(N3CCOC3=O)ccc21 : its composite z-score reads -0.139

Noted for COc1ccc([C@H]2C[C@H]3C(Br)=C[C@]2(OC)C(=O)[C@]32CO2)cc1 : its composite z-score reads -0.0536

Noted for CC(=O)NCCCC[C@@H]1NC(=O)[C@H]2C[C@@H](C(=O)NCCCCCCN(C)C)[C@@H](c3ccc(O)cc3)N2C1=O : its composite z-score reads 0.538

Noted for O=C(O)[C@@H]1Cc2c([nH]c3ccccc23)[C@@H](c2ccccc2)N1 : its composite z-score reads -0.202

Noted for CCCC/C=C/[C@H]([C@@H](O)Cc1ccccc1)N(CC#Cc1ccccc1)Cc1ccccc1Br : its composite z-score reads -0.0061

Noted for COCCOC(=O)N1C(=O)[C@@]2(c3cc(C#CCC(C(=O)OC)C(=O)OC)ccc31)[C@H](C(=O)N1CCN(c3ncccn3)CC1)[C@H]1C(=O)O[C@H](c3ccccc3)[C@H](c3ccccc3)N1[C@@H]2c1ccc(O)cc1 : its composite z-score reads 0.443

###

In this section we review reported z-score values for a set of compounds.
Assay: modulators of S6 phosphorylation in cells, primary screen, cell-based, A549, cytoblot, luminescence, serum-stimulated (AID 1158);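 further: serum-stimulated A549 lung adenocarcinoma cells; signal is phosphorylated S6 detected by cytoblot immunostaining with HRP secondary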
Settings: A549 phospho-S6 cytoblot, 5 h, higher = more signal
Respond numerically, and do not add a unit to the figure.

Here's what some known entries look like.
CC(c1ccccc1)C(O)C1C=CC2C(=O)N(C)C(=O)C2N1N(c1ccccc1)c1ccccc1 (stereo not given)
-0.987
C[C@@H]1NC(=O)[C@H](Cc2ccccc2)NC(=O)[C@@]23C(=O)N[C@@H](Cc4ccccc4)C2[C@H](C)[C@@]2(C)O[C@H]2C3/C=C/C/C=C\CNC1=O (stereo not given in full)
-0.248
C=CCN1C(=O)[C@@]2(O[C@@H](CCn3cc([C@H](O)c4ccccc4)nn3)[C@H]([Si](C)(C)c3ccc(OC)cc3)[C@H]2C)c2cc(N3CCOC3=O)ccc21
1.67

Noted for CC(=O)NCCCC[C@@H]1NC(=O)[C@H]2C[C@@H](C(=O)NCCCCCCN(C)C)[C@@H](c3cccc(OCCO)c3)N2C1=O : its z-score reads 0.317

Noted for CO[C@H]1COC(=O)CC=C[C@@H](C)COC(=O)[C@@H](C)NC(=O)CC=C[C@@H]1C : its z-score reads 2.57

###

Assay: fission yeast growth modulation, primary screen, strain 972, OD600, 24 h, no modulator (AID 1090);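 further: basal condition with compound alone and no growth modifier present; test concentration not given here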
Conditions: S. pombe 972 growth, called active from +8 up or from −8 down
Active and inactive are the calls of the source.
Parameter call: string, one of Y for active, N for inactive

For orientation, consider the following solved cases.
C=C(CCCC)/C(=C/C[C@@H](OC(=O)c1ccncc1)c1cccc(OCCO)c1)c1cc(C(=O)OC)ccc1OC
N
O=C1C2C=CC(C(O)Cc3ccccc3)N(Nc3ccc([N+](=O)[O-])cc3)C2C(=O)N1c1ccccc1 (stereo not drawn)
N
CO[C@H]1O[C@H](CO)[C@@H](OC(=O)Nc2ccc3c(c2)OCO3)[C@H](OC(=O)Nc2ccccc2)[C@@H]1OC(=O)Nc1ccccc1
N
CN1C(=O)C2C=CC(C(O)C3CC=CCC3)N(Nc3ccccc3)C2C1=O (stereo not drawn)
N
CO[C@H]1COC(=O)[C@H](C)NC(=O)CC=C[C@@H](C)[C@H](NS(=O)(=O)c2ccc(C)cc2)COC(=O)[C@@H](OCc2ccccc2)C=C[C@@H]1C
N
CN(C)CCCC[C@@H]1NC(=O)[C@@H]2C[C@H](C(=O)O)[C@H](c3ccc(O)cc3)N2C1=O
N
COc1ccc(C(=O)Nc2ccc(CN3C(=O)[C@]4(O[C@H](CCn5cc(CCO)nn5)[C@@H]([Si](C)(C)c5ccc(OC)cc5)[C@@H]4C)c4ccccc43)cc2)cc1
N
COc1cc(CO)cc(I)c1O[C@H]1C=C(C(=O)NCCO)C[C@@H](NCCc2c[nH]c3ccccc23)[C@@H]1O
Y

Short answer needed: outcome of this test for [N-]=[N+]=NCc1ccccc1[C@H]1OC(c2ccc(OCCCO)cc2)=N[C@@]1(Cc1ccccc1N=[N+]=[N-])C(=O)NCc1ccccc1 ?
N

Short answer needed: outcome of this test for C=CCC(OC(C)=O)[C@@H]1[C@@H](N(Cc2ccc(-c3cccc(C(F)(F)F)c3)o2)C(=O)Cc2ccc(F)cc2)c2cc(OCCCO)ccc2N1C(=O)c1ccc(-c2ccccc2)cc1 (stereo partly drawn) ?
N

Short answer needed: outcome of this test for CCCC=C(CCC)[C@@H](NS(=O)(=O)c1cccc(C(F)(F)F)c1)c1ccc(C(=O)OC)cc1 ?
N

Short answer needed: outcome of this test for CCOC(=O)C[C@H]1[C@H](OC(=O)c2ccccc2-c2ccccc2)[C@@H](NC(=O)C2CCCCC2)c2cc(OCCCO)ccc2N1C(=O)c1ccccc1 ?
N

Short answer needed: outcome of this test for COC(=O)[C@H]1[C@@H]2COc3ccccc3[C@H]2N[C@H]1C(=O)OC ?
Y

Short answer needed: outcome of this test for O=C(N1CCCCC1)[C@@]1(CCS(=O)(=O)c2ccccc2)N=C(c2ccc(OCCCO)cc2)O[C@H]1c1ccccc1 ?
N
